Assay: Metabolic stability in Sprague-Dawley rat hepatocytes assessed as parent compound remaining at 5 uM incubated for 3 hrs by LC-MS analysis
Assay type: ADME, cell-based, Hepatocyte
Settings: read-out: Stabilty
Parameter: remaining at 3 h, 5 µM (%)
Return type: number; implicit unit %.

Qu. Item under review: C[C@@H]1COCCN1c1nc(-c2cnc(N)cc2C(F)F)nc(N2[C@H](C)COC[C@@H]2C)n1 . Reported remaining at 3 h, 5 µM?
Ans. 42.3

---

Assay: Metabolic stability in Beagle dog hepatocytes assessed as half-life at 5 uM incubated for 3 hrs by LC-MS analysis
Format: ADME, cell-based, Canis lupus familiaris, Hepatocyte
// values below are reported half-life at 5 µM
Return type: number; implicit unit min.

C[C@@H]1COCCN1c1nc(-c2cnc(N)cc2C(F)F)nc(N2[C@H](C)COC[C@@H]2C)n1 = 490

Qu. Item under review: CCOc1ccc2ccc(=O)oc2c1 . Reported half-life at 5 µM?
Ans. 14

---

// values below are reported remaining at 3 h, 5 µM
Test: Metabolic stability in CD1 mouse hepatocytes assessed as parent compound remaining at 5 uM incubated for 3 hrs by LC-MS analysis
Format: ADME, cell-based, Hepatocyte
Settings: read-out: Stabilty

Nc1cc(C(F)F)c(-c2nc(N3C4CCC3COC4)nc(N3C4CCC3COC4)n2)cn1 = > 59.9%

Here is the next item to consider.
Qu. Item under review: C[C@@H]1COCCN1c1nc(-c2cnc(N)cc2C(F)F)nc(N2[C@H](C)COC[C@@H]2C)n1 . Reported remaining at 3 h, 5 µM?
Ans. 48.4%

---

Tested on: P-glycoprotein
Test: Substrate activity at human P-glycoprotein stably expressed in MDCK cells assessed as efflux ratio at 1 uM measured after 5 to 20 mins by UPLC-MS/MS analysis
Assay type: ADME, cell-based
Conditions: MDCK-MDR1, time 5-20 min
Parameter: efflux ratio at 1 µM

Qu. Request body: readout efflux ratio at 1 µM, system P-glycoprotein, query C[C@@H]1COCCN1c1nc(-c2cnc(N)cc2C(F)F)nc(N2CCOCC2(C)C)n1 . Return the value.
Ans. 1.5

---

Assay: Inhibition of mTORC1 in human A2058 cells assessed as reduction in RPS6 phosphorylation at S235/236 residue incubated for 1 hrs by Western blot analysis
Assay type: cell-based
Conditions: A2058, 1 h
Bucketed by reported IC50, buckets being low range (below 200 nM), mid range (200 nM to below 400 nM), high range (400 nM or more)

Below, 8 compounds whose answers are already recorded.
C[C@@H]1COCCN1c1nc(-c2cnc(N)cc2C(F)F)nc(N2CCOC[C@@H]2C)n1 = low range
C[C@@H]1COCCN1c1nc(-c2cnc(N)cc2C(F)F)nc(N2CCOC[C@H]2CO)n1 = high range
C[C@@H]1COCCN1c1nc(-c2cnc(N)cc2C(F)F)nc(N2[C@@H](C)COC[C@@H]2C)n1 = low range
C[C@@H]1COCCN1c1nc(-c2cnc(N)cc2C(F)F)nc(N2[C@H](C)COC[C@@H]2C)n1 = low range
C[C@@H]1COCCN1c1nc(-c2cnc(N)cc2C(F)F)nc(N2CCOCC2(C)C)n1 = low range
CC[C@@H]1COCCN1c1nc(-c2cnc(N)cc2C(F)F)nc(N2CCOC[C@H]2C)n1 = mid range
C[C@@H]1CN(c2nc(-c3cnc(N)cc3C(F)F)nc(N3CCOC[C@H]3C)n2)C[C@H](C)O1 = high range
COC[C@@H]1COCCN1c1nc(-c2cnc(N)cc2C(F)F)nc(N2CCOC[C@H]2C)n1 = high range

Qu. Could you tell me which band C[C@@H]1COCCN1c1nc(-c2cnc(N)cc2C(F)F)nc(N2CCOCC23CCC3)n1 belongs to?
Ans. low range

Qu. Next up: C[C@@H]1COCCN1c1nc(-c2cnc(N)cc2C(F)F)nc(N2CCOC[C@H]2C)n1
Ans. mid range

Qu. Next up: CC[C@H]1COCCN1c1nc(-c2cnc(N)cc2C(F)F)nc(N2CCOC[C@H]2C)n1
Ans. mid range

Qu. Next up: C[C@@H]1COCCN1c1nc(-c2cnc(N)cc2C(F)F)nc(N2CCOC[C@@H]2CO)n1
Ans. high range
